src = patent US11098010B2

System: HBV rcDNA in HepDE19 cells
TEST: HepDE19 assay with bDNA quantitation of HBV rcDNA
Format: cell-based, hepatitis B virus (HBV)
PROTOCOL CONDITIONS: Hepatitis B virus, HepDE19, 168 h, read-out: DE-19 bDNA EC50 (μM), HepDE19 cells, inhibition of rcDNA formation, 7 day incubation, top concentration 25 μM
Counter-ions that a name gives are not always drawn.
READOUT KIND: EC50 (µM)

> print(dat)
                                    compound  readout.kind  result.value
 1  O=C(Nc1ccc(F)c(Cl)c1)c1ccc(F)c2c1CC[C@@H]2NS(=O)(=O)c1ccccn1 [Compound 184, Hydrochloride]          EC50          0.66
 2  C[C@H](OC(=O)N[C@H]1CCc2c(C(=O)Nc3ccc(F)c(Cl)c3)ccc(F)c21)c1ccccn1          EC50          0.39
 3  COCC(=O)N1CCC(COC(=O)N[C@H]2CCc3c(C(=O)Nc4ccc(F)c(Cl)c4)ccc(F)c32)CC1          EC50          0.37
 4  O=C(N[C@H]1CCc2c(C(=O)Nc3ccc(F)c(Cl)c3)ccc(F)c21)OCc1ncccn1          EC50          0.12
 5  O=C(N[C@H]1CCc2c(C(=O)Nc3ccc(F)c(Cl)c3)ccc(F)c21)OCCc1cn[nH]c1          EC50           0.2
 6  CN(C)c1cccc(COC(=O)N[C@H]2CCc3c(C(=O)Nc4ccc(F)c(Cl)c4)ccc(F)c32)n1          EC50          0.16
 7  O=C(N[C@H]1CCc2c(C(=O)Nc3ccc(F)c(Cl)c3)ccc(F)c21)OCc1ccc2ccccc2n1          EC50          0.41
 8  O=C(N[C@H]1CCc2c(C(=O)Nc3ccc(F)c(Cl)c3)ccc(F)c21)OCc1ccon1          EC50          0.13
 9  O=C(N[C@H]1CCc2c(C(=O)Nc3ccc(F)c(Cl)c3)ccc(F)c21)OCc1ccc(C(F)(F)F)cn1          EC50           2.2
10  O=C(N[C@H]1CCc2c(C(=O)Nc3ccc(F)c(Cl)c3)ccc(F)c21)OCC1CC(F)(F)CN1 (stereo partly drawn) [Compound 56, Hydrochloride]          EC50           0.5
11  O=C(N[C@H]1CCc2c(C(=O)Nc3ccc(F)c(Cl)c3)ccc(F)c21)OCc1ccc(F)cn1          EC50          0.27
12  O=C(N[C@H]1CCc2c(C(=O)Nc3ccc(F)c(Cl)c3)ccc(F)c21)OC[C@H]1COCCN1 [Compound 139, Hydrochloride]          EC50          0.62
13  COC(=O)N[C@H]1CCc2c(C(=O)Nc3ccc(F)c(C)c3)ccc(F)c21          EC50          0.21
14  Cc1cnc(N[C@H]2CCc3c(C(=O)Nc4ccc(F)c(Cl)c4)ccc(F)c32)nc1          EC50          0.15
15  COc1ccnc(COC(=O)N[C@H]2CCc3c(C(=O)Nc4ccc(F)c(Cl)c4)ccc(F)c32)c1          EC50          0.22

---

System: HBV rcDNA in HepDE19 cells
TEST: HepDE19 assay with bDNA quantitation of HBV rcDNA
Assay type: cell-based, hepatitis B virus (HBV)
PROTOCOL CONDITIONS: Hepatitis B virus, HepDE19, 168 h, read-out: DE-19 bDNA EC50 (μM), HepDE19 cells, inhibition of rcDNA formation, 7 day incubation, top concentration 25 μM
Counter-ions that a name gives are not always drawn.
Mark Fulfilled for EC50 under 0.4 µM, Not fulfilled if at or over.

> print(dat)
                                    compound  class.assignment
 1  CNC(=O)N[C@H]1CCc2c(C(=O)Nc3ccc(F)c(Cl)c3)ccc(F)c21         Fulfilled
 2  O=C(N[C@H]1CCc2c(C(=O)Nc3ccc(F)c(Cl)c3)ccc(F)c21)OCCCN1CCCC1=O     Not fulfilled
 3  O=C(N[C@H]1CCc2c(C(=O)Nc3ccc(F)c(Cl)c3)ccc(F)c21)OCCn1ccnc1 [Compound 96, Hydrochloride]         Fulfilled
 4  O=C(N[C@H]1CCc2c(C(=O)Nc3ccc(F)c(Cl)c3)ccc(F)c21)OCC(=O)N1CCCC1     Not fulfilled
 5  CNC(=O)N[C@@H]1c2cccc(C(=O)Nc3ccc(F)c(Cl)c3)c2C[C@H]1OC         Fulfilled
 6  O=C(N[C@H]1CCc2c(C(=O)Nc3ccc(F)c(Cl)c3)ccc(F)c21)OCc1ccn(COP(=O)(O)O)n1 [Compound 254, phosphate]     Not fulfilled
 7  COc1cc(N[C@H]2CCc3c(C(=O)Nc4ccc(F)c(Cl)c4)ccc(F)c32)ncn1         Fulfilled
 8  O=C(N[C@H]1CCc2c(C(=O)Nc3ccc(F)c(Cl)c3)ccc(F)c21)OCC1CCN(C(=O)CO)CC1     Not fulfilled
 9  COc1cccc(COC(=O)N[C@H]2CCc3c(C(=O)Nc4ccc(F)c(Cl)c4)ccc(F)c32)n1         Fulfilled
10  CNC(=O)N1CCC(COC(=O)N[C@H]2CCc3c(C(=O)Nc4ccc(F)c(Cl)c4)ccc(F)c32)CC1     Not fulfilled
11  N#Cc1cc(NC(=O)c2ccc(F)c3c2CC[C@@H]3NC(=O)OCc2ccccn2)ccc1F [Compound 126, Hydrochloride]         Fulfilled
12  O=C(N[C@H]1CCc2c(C(=O)Nc3ccc(F)c(Cl)c3)ccc(F)c21)OC[C@H]1CCCO1         Fulfilled
13  O=C(N[C@H]1CCc2c(C(=O)Nc3ccc(F)c(Cl)c3)cccc21)OCc1ccccn1         Fulfilled
14  O=C(N[C@H]1CCc2c(C(=O)Nc3ccc(F)c(Cl)c3)ccc(F)c21)OCCCn1ccnc1 [Compound 125, Hydrochloride]         Fulfilled
15  O=C1CC[C@@H](COC(=O)N[C@H]2CCc3c(C(=O)Nc4ccc(F)c(Cl)c4)ccc(F)c32)N1         Fulfilled
16  Cc1ncsc1CCOC(=O)N[C@H]1CCc2c(C(=O)Nc3ccc(F)c(Cl)c3)ccc(F)c21         Fulfilled
17  O=C1CCC[C@@H](COC(=O)N[C@H]2CCc3c(C(=O)Nc4ccc(F)c(Cl)c4)ccc(F)c32)N1         Fulfilled
18  COc1nccc(N[C@H]2CCc3c(C(=O)Nc4ccc(F)c(Cl)c4)ccc(F)c32)n1         Fulfilled
19  O=C(N[C@H]1CCc2c(C(=O)Nc3ccc(F)c(Cl)c3)ccc(F)c21)OCc1cnccn1         Fulfilled
20  COC(=O)N[C@@H]1c2cccc(C(=O)Nc3ccc(F)c(Cl)c3)c2C[C@H]1O     Not fulfilled
21  Cc1cc(C)nc(N[C@H]2CCc3c(C(=O)Nc4ccc(F)c(Cl)c4)ccc(F)c32)n1     Not fulfilled
22  O=C(N[C@H]1CCc2c(C(=O)Nc3ccc(F)c(Cl)c3)ccc(F)c21)OCCOc1ccccc1     Not fulfilled
23  Cc1cc(NC(=O)c2cccc3c2CC[C@@H]3NC(=O)OC[C@H]2CCC(=O)N2)ccc1F     Not fulfilled
24  O=C(Nc1ccc(F)c(Cl)c1)c1ccc(F)c2c1CC[C@@H]2NS(=O)(=O)c1ccccc1     Not fulfilled
25  Cc1nccnc1COC(=O)N[C@H]1CCc2c(C(=O)Nc3ccc(F)c(Cl)c3)ccc(F)c21         Fulfilled
26  O=C(N[C@H]1CCc2c(C(=O)Nc3ccc(F)c(Cl)c3)ccc(F)c21)OC[C@@H]1CCCN1CC(F)(F)F [Compound 108, Hydrochloride]     Not fulfilled
27  COc1ccnc(N[C@H]2CCc3c(C(=O)Nc4ccc(F)c(Cl)c4)ccc(F)c32)n1     Not fulfilled
28  O=C(N[C@H]1CCc2c(C(=O)Nc3ccc(F)c(Cl)c3)ccc(F)c21)OCc1cccc(N2CCOCC2)n1         Fulfilled

---

Test system: HBV rcDNA in HepDE19 cells
TEST: HepDE19 assay with bDNA quantitation of HBV rcDNA
Format: cell-based, hepatitis B virus (HBV)
PROTOCOL CONDITIONS: Hepatitis B virus, HepDE19, 168 h, read-out: DE-19 bDNA EC50 (μM), HepDE19 cells, inhibition of rcDNA formation, 7 day incubation, top concentration 25 μM
Source text: HepDE19 Assay with bDNA Quantitation of HBV rcDNA: HepDE19 cell culture system is a HepG2 (human hepatocarcinoma) derived cell line that supports HBV DNA replication and cccDNA formation in a tetracycline (Tet)-regulated manner and produces HBV rcDNA and a detectable reporter molecule dependent on the production and maintenance of cccDNA (Guo, et al., 2007, J. Virol. 81:12472-12484). […]
Where a name gives a salt, the structure may show the parent alone.
READOUT KIND: EC50 (µM)

> print(dat)
                                   compound  readout.kind  units.of.measure  result.value
1  O=C(N[C@H]1CCc2c(C(=O)Nc3ccc(F)c(Cl)c3)ccc(F)c21)OCC1CS(=O)(=O)CCN1 (stereo partly shown) [Compound 177, Hydrochloride]          EC50                µM           0.5
2  O=C(Nc1ccc(F)c(Cl)c1)c1ccc(F)c2c1CC[C@@H]2Nc1ncccn1          EC50                µM          0.25
3  O=C(N[C@H]1CCc2c(C(=O)Nc3ccc(F)c(Cl)c3)ccc(F)c21)OCCCO          EC50                µM            24
4  O=C(N[C@H]1CCc2c(C(=O)Nc3ccc(F)c(Cl)c3)ccc(F)c21)OCc1cc[nH]n1          EC50                µM          0.06
